Biological target: NMDA receptor glycine site (Rattus norvegicus, UniProt P35439)
Construct: fresh brain tissue including cerebral cortex and hippocampus from male Sprague Dawley rats was homogenized; tissue Analytical Biological Services Inc; host or cells: rat brain membranes (cerebral cortex and hippocampus, male Sprague Dawley rats)
Test: Test A: Inhibition of binding of [3H]-MDL105,519 to brain membranes
Conditions: inhibition of [3H]-MDL105,519 binding to brain membranes; 1.2 nM radioligand, 30 minutes at room temperature
pKi: −log10 of the molar value.
readout: pKi

(a) O=c1c2ccc(Cl)cc2[nH]c2c(O)nn(C(c3ccccn3)C3CC3)c(=O)c12 (racemic)
(b) O=c1c2ccc(Cl)cc2[nH]c2c(O)nn(C(c3ccccc3)c3ccncc3)c(=O)c12 (racemic)
Input line: I would appreciate it if you could say which entry, a or b , has the lower pKi value. Write down the label attached to your selection.
Output line: b
(b: 5.43, a: 6.00)
